Consider the following molecules; for each one, report its solubility.
- assayComment: Solubility in water
- Type: physicochemical
Residues, ends and D or L forms follow the SMILES beside them. *: point of attachment. C16 diacid = O=C(O)CCCCCCCCCCCCCCC(=O)*
One number for each entry, in µM.

molecule	experimentalReadout	testResult
CCCCCC(=O)N[C@@H](CSCCOCCOCCSC[C@H](NC(=O)CCCCC)C(=O)N[C@@H](CC(C)C)C(=O)N[C@@H](Cc1ccccc1)C(N)=O)C(=O)N[C@@H](Cc1ccccc1)C(=O)O	solubility	90

// for each molecule in input: emit solubility
1. CCCCCCC(=O)N[C@@H](CSCCOCCOCCSC[C@H](NC(=O)CCCCCC)C(=O)N[C@@H](CC(C)C)C(=O)N[C@@H](Cc1ccccc1)C(N)=O)C(=O)N[C@@H](Cc1ccccc1)C(=O)O
2. CC(C)C[C@H](NC(=O)[C@@H](NC(=O)CCCCCCCCCCCCCCC(=O)N[C@@H](CC(N)=O)C(=O)N[C@@H](Cc1ccccc1)C(=O)O)[C@@H](C)O)C(=O)N[C@@H](Cc1ccccc1)C(N)=O ({Phe-Asn-C16 diacid}-Thr-Leu-Phe-NH2)

output:
1. 80
2. 1

* * *

- tgt: Protease (Human immunodeficiency virus 1)
- Sequence (Q9YQ12 whole entry): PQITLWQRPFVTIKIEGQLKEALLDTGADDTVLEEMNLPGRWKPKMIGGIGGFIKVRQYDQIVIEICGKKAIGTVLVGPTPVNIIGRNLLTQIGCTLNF
- assayComment: Inhibition of HIV1 protease dimerization by Zhang-Poorman kinetic assay
Consider the following molecules; for each one, report its pKi.
One number for each entry, as −log10 of the molar value.

Sample answers from the record:
CC(C)C[C@H](NC(=O)[C@H](CSCCOCCOCCSC[C@H](NC(=O)COc1ccccc1)C(=O)N[C@@H](Cc1ccccc1)C(=O)O)NC(=O)COc1ccccc1)C(=O)N[C@@H](Cc1ccccc1)C(N)=O 5.90
CCCC(=O)N[C@@H](CSCCOCCOCCSC[C@H](NC(=O)CCC)C(=O)N[C@@H](CC(C)C)C(=O)N[C@@H](Cc1ccccc1)C(N)=O)C(=O)N[C@@H](Cc1ccccc1)C(=O)O 5.08
CCCCCCC(=O)N[C@@H](CSCCOCCOCCSC[C@H](NC(=O)CCCCCC)C(=O)N[C@H](C(=O)N[C@@H](Cc1ccccc1)C(N)=O)[C@H](C)CC)C(=O)N[C@@H](Cc1ccccc1)C(=O)O 3.29

Query molecule follows.
input: GET /values?readout=pKi&item= "CC[C@@H](C)[C@H](NC(=O)[C@H](CSCCOCCOCCSC[C@H](NC(=O)CCCCC1CCCCC1)C(=O)N[C@@H](Cc1ccccc1)C(=O)O)NC(=O)CCCCC1CCCCC1)C(=O)N[C@@H](Cc1ccccc1)C(N)=O"
output: 4.40

* * *

Data export: IC50 values recorded with UniProt Q9YQ12.
Answer by giving the amount and then stating its unit.

Sample answers from the record:
CCCCCCC(=O)N[C@@H](CSCCOCCOCCSC[C@H](NC(=O)CCCCCC)C(=O)N[C@@H](CC(C)C)C(=O)N[C@@H](Cc1ccccc1)C(N)=O)C(=O)N[C@@H](Cc1ccccc1)C(=O)O 4 µM
CC(C)C[C@H](NC(=O)[C@H](CSCCOCCOCCSC[C@H](NC(=O)CC1CCCCC1)C(=O)N[C@@H](Cc1ccccc1)C(=O)O)NC(=O)CC1CCCCC1)C(=O)N[C@@H](Cc1ccccc1)C(N)=O 9.5 µM

// for each molecule in input: emit IC50
1. CC(C)C[C@H](NC(=O)[C@H](CSCCOCCOCCSC[C@H](NC(=O)CCC1CCCCC1)C(=O)N[C@@H](Cc1ccccc1)C(=O)O)NC(=O)CCC1CCCCC1)C(=O)N[C@@H](Cc1ccccc1)C(N)=O
2. CC(C)C[C@H](NC(=O)[C@H](CSCCOCCOCCSC[C@H](NC(=O)CCCCC1CCCCC1)C(=O)N[C@@H](Cc1ccccc1)C(=O)O)NC(=O)CCCCC1CCCCC1)C(=O)N[C@@H](Cc1ccccc1)C(N)=O
3. CCCCC(=O)N[C@@H](CSCCOCCOCCSC[C@H](NC(=O)CCCC)C(=O)N[C@@H](CC(C)C)C(=O)N[C@@H](Cc1ccccc1)C(N)=O)C(=O)N[C@@H](Cc1ccccc1)C(=O)O

output:
1: 2.5 µM; 2: 675 µM; 3: 50 µM
